src = PubChem BioAssay (NCI)

Consider the following compounds and their measured growth readings.
# Tested on: RXF 393 renal
# TEST DESCRIPTION: NCI-60 one-dose screen, 48 h (100 = growth as untreated, 0 = no growth, -100 = all killed)
# CONDITION DESCRIPTION: 10 µM unless noted
# Method: Cells are grown in 96 well plates and exposed to the test compound for 48 hours. Compounds are tested at a single concentration, which is 10^-5 M for most compounds. The reported endpoint is percent growth (GI% or GIPRCNT), where numbers from 0 - 100% represent growth inhibition, and numbers from -100% - 0 represent cell death. For example, a value of 40 represents 60% growth inhibition. A value of 0 means no net growth occurred over the course of the experiment. […]
About 83,000 compounds went through this panel and 20% of them were active in at least one assay; those are over-represented in the sample as a whole.
Just the number please, in %, no unit attached.

Example compounds with recorded growth:
| COMPOUND | UNIT STRING | growth |
| --- | --- | --- |
| c1n[nH]cc1-c1nc2ccc3[nH]ncc3c2c2c1CCCC2 | % | -51.4 |
| Cc1cc(C)c(N2C(=O)CC(Nc3ccc(Cl)cc3Cl)C2=O)c(C)c1 (stereo not drawn) | % | 121 |

growth lookup needed for CCCn1cnc2c(c1=N)C(c1ccc(OC)cc1)c1sc3c(C)cccc3c1O2 (stereo not drawn) , thanks.
-5.55

Consider next the compound NS(=O)(=O)c1ccc(-n2cc(CN3CCNCC3)nn2)cc1 in the same way.
111

What about C=CCOc1cccc(/C=C2\SC(=S)N(C3CC(=O)N(c4ccc(Br)cc4)C3=O)C2=O)c1 (stereo not drawn) ?
132
